All values here come from PubChem BioAssay (NCI).

# System: OVCAR-8 ovarian
# assay-text: NCI-60 one-dose screen, 48 h (100 = growth as untreated, 0 = no growth, -100 = all killed)
# experimental-context: 10 µM unless noted
The panel holds about 83,000 compounds, 20% with a hit somewhere; the sample as a whole holds those more often.
value-kind: growth (%)
Quick note: give the figure in %, leave out the unit.

Field request: growth | item: ClCc1cccc(CSc2ncnc3c2ncn3Cc2cccc(CCl)c2)c1 -16.4

Field request: growth | item: COc1cc(C)cc2oc3oc(=O)c(-c4csc(-c5cc6ccccc6oc5=O)n4)cc3c(=O)c12 103

Field request: growth | item: CN=C1C=C/C(=N/N=c2/ccn(O)cc2C)C=C1C 94.2

Field request: growth | item: Fc1cc(-c2nnc3sc(-c4ccc(Cl)cc4)nn23)c(Cl)cc1Cl 100

Field request: growth | item: COc1ccc(-c2cnc3ccnn3c2-c2cc(OC)c(OC)c(OC)c2)cc1 47

Field request: growth | item: CCCCNCC(O)c1cc(-c2ccc(C(F)(F)F)cc2)nc(-c2ccc(C(F)(F)F)cc2)c1 (stereo not given) -71.1

Field request: growth | item: O=c1[nH]cnc2nc[nH]c12 76.9

Field request: growth | item: CCCc1n(Cc2ccc3ccccc3n2)cc[n+]1Cc1ccc2ccccc2c1 10.8

Field request: growth | item: Cc1cc(O)ccc1C1=NN(c2ccc(S(N)(=O)=O)cc2)C(=O)CC1 50.1

Field request: growth | item: C=CCn1c(SCC(=O)Nc2ccc(/C(C)=N\O)cc2)nnc1-c1cc(-c2ccc(Cl)cc2)nc2ccccc12 24

Field request: growth | item: CC1=C(O)C(=O)C(c2c(C)cc(C)c(Br)c2C)=C(O)C1=O 68.4

Field request: growth | item: COc1ccc(NC(=O)/C=C/c2ccc(NC(=O)N3CCCC3)cc2)cn1 101

Field request: growth | item: COc1cc(C2CC(c3ccc(Cl)cc3)=NN2C=O)ccc1OS(=O)(=O)c1ccc(C)cc1 (stereo not given) 90.3

Field request: growth | item: CCc1ccc2c(c1)N(CCO)C1=C(C(=O)OC1)C2c1cccc(Br)c1 (stereo not given) 33.7

Field request: growth | item: Cc1[nH]nc2ccc3nc(-c4ccc5[nH]ncc5c4)c4c(c3c12)CCCC4 28.2

Field request: growth | item: COc1cccc2nc(Nc3cccc(NC(=O)c4ccc(N5CCN(C)CC5)c(C(F)(F)F)c4)c3)ccc12 30.7

Field request: growth | item: [Ag].[Ag].[NH-]S(=O)(=O)c1ccc(N=Nc2cc(N=Nc3ccc(S([NH-])(=O)=O)cc3)c3c(NC(=O)C(Cl)Cl)cccc3c2OC(=O)C(Cl)Cl)cc1.[c-]1nccs1.[c-]1nccs1 68.3

Field request: growth | item: CC[C@H](Nc1nc(C)nc(N)c1C#N)c1nc2cccc(NCc3ccc(C(=O)NO)cc3)c2c(=O)n1-c1ccccc1 2.46

Field request: growth | item: COc1ccc(/C(=C\c2cc(OC)c(OC)c(OC)c2)C(=O)Nc2nc3ccc(Cl)cc3s2)cc1 94.1

Field request: growth | item: CN1CCN(Cc2ccc(NC(=O)c3cncc(C#Cc4ccc(N)nc4)c3)cc2C(F)(F)F)CC1 20.1

Field request: growth | item: CC(=O)N[C@@H](CCC(N)=O)C(=O)O 98.8

Field request: growth | item: COc1ccc(NC(=O)/C=C/c2ccc(Cl)c(Cl)c2)cn1 61.1

Field request: growth | item: Cc1nc2c(-c3cnc(N)nc3)nc(N3CCOCC3)nc2n1C(C)C -8.95

Field request: growth | item: COc1cccc(CC(C)=C(c2ccc(OCCCN(C)C)cc2)c2ccc(OCCCN(C)C)cc2)c1 -78.7

Field request: growth | item: COC(=O)C1(C)COP(=O)(NC23CC4CC(CC(C4)C2)C3)OC1 (stereo not given) 107

Field request: growth | item: CCCCCCCCCCCCCCCC1=NCC[N+]1(CCO)CCO 37

Field request: growth | item: CCN(CC)CCCCCCCNc1cc(OC)cc2c(C)ccnc12 67.2

Field request: growth | item: CC(=O)c1c(C)nc(-c2cc(C)cc(Cl)c2)nc1-c1cccc(Oc2ccccc2)c1 91.8

Field request: growth | item: Nc1c(C(=O)Nc2cccc(Cl)c2)sc2ncc(Br)cc12 87.1

Field request: growth | item: Cc1ccc(CSCc2ccc(C(=O)NC3CC3)o2)cc1 72

Field request: growth | item: Cc1cc2nc3c(=O)[nH]c(=O)nc-3n(CC=O)c2cc1C 121

Field request: growth | item: CC1CN(CCCOC(=O)Nc2ccc(Cl)cc2)CCN1C(C)(C)C (stereo not given) 104

Field request: growth | item: Nc1ccc(C(OC(=O)c2cc3ccccc3c(Cc3c(O)c(C(=O)OC(c4ccc(N)cc4)(c4ccc(N)cc4)c4ccc(N)cc4)cc4ccccc34)c2O)(c2ccc(N)cc2)c2ccc(N)cc2)cc1 13.5

Field request: growth | item: COc1ccc2nc(C)cc(Nc3ccccc3O)c2c1 32.6

Field request: growth | item: O=C1Nc2ccccc2/C1=C/c1c[nH]c2ccccc12 84.9

Field request: growth | item: COc1ccc(-c2[nH]nc(N)c2-c2cc(OC)c(OC)c(OC)c2)cc1 7.81

Field request: growth | item: COc1ccc(/C=C2\CCCC3=C2N=C2SC(C)=NN2C3c2ccc(OC)c(OC)c2)cc1OC (stereo not given) -4.14

Field request: growth | item: CC(C)=CCC[C@H](C)c1ccc(C)c2c1OCN(CCO)C2 86.3

Field request: growth | item: Nc1c(C(=O)c2ccc(Br)cc2)sc2nc3c(cc12)CCCC3 98.7

Field request: growth | item: Cn1nc(C(F)(F)F)cc1-c1cc(Cl)c(OCc2ccc(Cl)cc2)c(-c2ccc(Cl)c(C(F)(F)F)c2)c1O 14.5
